target: acetylcholine esterase (Mus musculus); construct: using a mouse brain homogenate as the acetylcholine esterase source; from tissue; host or cells: mouse brain homogenate; test: biochemical
Sequence (P21836 32-614): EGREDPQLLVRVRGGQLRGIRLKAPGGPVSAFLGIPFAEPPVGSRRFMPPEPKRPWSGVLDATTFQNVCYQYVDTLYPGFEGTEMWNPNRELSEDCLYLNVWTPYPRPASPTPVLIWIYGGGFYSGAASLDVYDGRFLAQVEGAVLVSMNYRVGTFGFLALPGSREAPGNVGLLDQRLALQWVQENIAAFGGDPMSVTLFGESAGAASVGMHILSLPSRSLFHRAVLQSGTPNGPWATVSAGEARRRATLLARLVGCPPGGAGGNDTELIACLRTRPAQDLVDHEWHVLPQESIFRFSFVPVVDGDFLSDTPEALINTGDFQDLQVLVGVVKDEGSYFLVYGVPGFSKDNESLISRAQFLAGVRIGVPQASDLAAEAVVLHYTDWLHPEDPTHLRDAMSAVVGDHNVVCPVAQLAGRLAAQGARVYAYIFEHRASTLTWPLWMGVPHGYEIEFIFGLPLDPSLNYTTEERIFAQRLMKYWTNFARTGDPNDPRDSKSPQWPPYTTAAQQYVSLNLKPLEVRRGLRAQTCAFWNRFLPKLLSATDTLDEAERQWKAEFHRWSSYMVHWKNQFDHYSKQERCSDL
measuredAttribute: pIC50
As a rule, pIC50 stands for the negative log10 of the concentration, concentration in M.

COc1ccc2c(c1)CN(CCC1CCN(CC3CCCCC3)CC1)C(=O)O2 [Example 42] :: 8.41
COc1ccc2oc(=O)n(CCC3CCN(Cc4ccccc4)CC3)c(=O)c2c1 [Example 38] :: 9.15

Quick one: pIC50 of COc1ccc2oc(=O)n(CCC3CCN(Cc4ccoc4)CC3)c(=O)c2c1 [Example 46] ? 7.94

Quick one: pIC50 of COc1ccc2c(c1)CN(CCC1CCN(CC3CCCC3)CC1)C(=O)O2 [Example 41] ? 8.33

Quick one: pIC50 of COc1cccc2c1CN(CCC1CCN(CC3OCCO3)CC1)C(=O)O2 [Example 52] ? 7.19

====

molecular target: acetylcholine esterase (Mus musculus); construct: using a mouse brain homogenate as the acetylcholine esterase source; from tissue; host or cells: mouse brain homogenate; test: biochemical
Structures can show the parent of a compound that is named as a salt.
Rule for this label: 1 means IC50 is less than 5 nM; 0 means IC50 is at least 5 nM.

Use the examples below as a reference point.
CC1(O)c2nccnc2C(=O)N1CCC1CCN(Cc2ccccc2)CC1 (centres unmarked) :: 0
COc1cccc2c1CN(CCC1CCN(Cc3ccccc3)CC1)C(=O)O2 [Example 1, hydrochloride] :: 1
Cc1ccc2c(n1)CN(CCC1CCN(Cc3ccccc3)CC1)C(=S)O2 [Example 9, hydrochloride] :: 0
CC(=O)Nc1ccc2c(c1)CN(CCC1CCN(Cc3ccccc3)CC1)C(=O)O2 :: 1

Consider O=C1CC(Cc2ccccc2)CN1CCC1CCN(Cc2ccccc2)CC1 (centres unmarked) [Example 14, hydrochloride] . Does its IC50 lie strictly below 5 nM? 0

Consider O=C(c1ccccc1)C1CC(=O)N(C2CCN(Cc3ccccc3)CC2)C1 (centres unmarked) . Does its IC50 lie strictly below 5 nM? 0

Consider CCOc1ccccc1C(=O)C1CC(=O)N(CCC2CCN(Cc3ccccc3)CC2)C1 (centres unmarked) . Does its IC50 lie strictly below 5 nM? 0

====

molecular target: acetylcholine esterase (Mus musculus); construct: using a mouse brain homogenate as the acetylcholine esterase source; from tissue; host or cells: mouse brain homogenate; experiment: biochemical
Counter-ions that a name gives are not always drawn.
measuredAttribute: pIC50
As a rule, pIC50 stands for the negative log10 of the concentration, concentration in M.

O=c1oc2ccccc2c(=O)n1CCC1CCN(Cc2ccccc2)CC1 [Example 3, hydrochloride] :: 8.07

Quick one: pIC50 of O=c1oc2ccc(F)cc2c(=O)n1CCC1CCN(CC2OCCO2)CC1 ? 5.99

Quick one: pIC50 of COc1ccc2oc(=O)n(CCC3CCN(CC4OCCO4)CC3)c(=O)c2c1 [Example 7, hydrochloride] ? 6.90

Quick one: pIC50 of O=c1[nH]c2nccnc2c(=O)n1CCC1CCN(Cc2ccccc2)CC1 ? 7.50

====

target: acetylcholine esterase (Mus musculus); construct: using a mouse brain homogenate as the acetylcholine esterase source; from tissue; host or cells: mouse brain homogenate; assay: biochemical
Structures can show the parent of a compound that is named as a salt.
measuredAttribute: log10 IC50 (log10 of the value in nM)
A value of 2 here means IC50 of 100 in nM, since values are log10.

Observe how each entry below is paired with its result.
COc1cccc2c1OC(=O)N(CCC1CCN(Cc3ccccc3)CC1)C2 :: 0.44
Cc1ccc2oc(=O)n(CCC3CCN(Cc4ccccc4)CC3)c(=O)c2n1 :: 0.96
O=C1Oc2ccc([N+](=O)[O-])cc2CN1CCC1CCN(Cc2ccccc2)CC1 :: -0.24
O=C1Oc2ccc(Cl)cc2CN1CCC1CCN(Cc2ccccc2)CC1 :: 0.14
O=C1Nc2ncccc2CN1CCC1CCN(CC2OCCO2)CC1 :: 2.46

Quick one: log10 IC50 of COc1ccc2oc(=O)n(CCC3CCN(CC4CCCCC4)CC3)c(=O)c2c1 ? 0.47

Quick one: log10 IC50 of Nc1ccc2c(c1)CN(CCC1CCN(Cc3ccccc3)CC1)C(=O)O2 ? 0.27

Quick one: log10 IC50 of COc1ccc2c(c1)CN(CCC1CCN(Cc3cccc(F)c3)CC1)C(=O)O2 ? -0.47

Quick one: log10 IC50 of O=C1Oc2c(Cl)cc(Cl)cc2CN1CCC1CCN(Cc2ccncc2)CC1 ? 1.46

Quick one: log10 IC50 of O=c1[nH]c2ncccc2c(=O)n1CCC1CCN(Cc2ccncc2)CC1 ? 2.14

Quick one: log10 IC50 of COc1ccc2oc(=O)n(CCC3CCN(Cc4cccc(F)c4)CC3)c(=O)c2c1 ? -0.74

Quick one: log10 IC50 of C=C1c2ccccc2C(=O)N1CCC1CCN(Cc2ccccc2)CC1 ? 1.66

Quick one: log10 IC50 of COc1ccc2oc(=O)n(CCC3CCN(CC4CCCC4)CC3)c(=O)c2c1 [Example 6, hydrochloride] ? 0.69
